Overview of reported responders at 50 mg/kg across a group of molecules:
# Test system: Strep. pyogenes
# METHOD: in vivo activity in mice infected with a lethal inoculum of Strep. pyogenes
# ASSAY CONDITIONS: Streptococcus pyogenes, oral, multiple dosing, read-out: IN VIVO Strep. pyogenes, number of survivors among the treated animals, PO (data in parenthesis)
Give the number; % is assumed, so skip it.

Take a look at these entries with their results.
1) COCCNC(=O)c1c(CS(=O)(=O)CCCOC(C)=O)[n+]([O-])c2ccccc2[n+]1[O-] [NHCH2 CH2 OCH3; SO2 CH2 CH2 CH2 OAc; H] :: 10
2) O=C(NCC(O)CO)c1c(CS(=O)(=O)CCO)[n+]([O-])c2ccccc2[n+]1[O-] (stereo not shown) [NHCH2 CHOHCH2 OH; SO2 CH2 CH2 OH; H] :: 70
3) CN(C)CCCS(=O)(=O)Cc1c(C(=O)NCCO)[n+]([O-])c2ccccc2[n+]1[O-] [NHCH2 CH2 OH; SO2 (CH2)3 N(CH3)2; H] :: 0

Give responders at 50 mg/kg (Strep. pyogenes) of the following molecule: CCCNC(=O)c1c(CS(=O)(=O)CCO)[n+]([O-])c2ccccc2[n+]1[O-] [NHPr; SO2 CH2 CH2 OH; H]
70

Form: Entry = CCNC(=O)c1c(CS(=O)(=O)CCCN(C)C)[n+]([O-])c2ccccc2[n+]1[O-] [NHCH2 CH3; SO2 (CH2)3 N(CH3)2; H] | System = Strep. pyogenes | responders at 50 mg/kg = ____
100

Which responders at 50 mg/kg is reported with Strep. pyogenes for this entry: CCNC(=O)c1c(CS(=O)(=O)CCCN2CCOCC2)[n+]([O-])c2ccccc2[n+]1[O-] [NHCH2 CH3; drawing 17; H] ?
80

Identify the measured responders at 50 mg/kg of CNC(=O)c1c(CSCCCO)[n+]([O-])c2ccccc2[n+]1[O-] [NHMe; SCH2 CH2 CH2 OH; H] for Strep. pyogenes.
10

All values here come from patent US4039540A.
